Data provenance is the supplement of paper PMC3545927.

This section presents sequences with their documented furin cleavage Z-score values.
# study_target: furin, P09958;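 further: purified furin at 1:10 enzyme:substrate in 50 mM HEPES pH 7.5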
# Sequence (P09958 whole entry): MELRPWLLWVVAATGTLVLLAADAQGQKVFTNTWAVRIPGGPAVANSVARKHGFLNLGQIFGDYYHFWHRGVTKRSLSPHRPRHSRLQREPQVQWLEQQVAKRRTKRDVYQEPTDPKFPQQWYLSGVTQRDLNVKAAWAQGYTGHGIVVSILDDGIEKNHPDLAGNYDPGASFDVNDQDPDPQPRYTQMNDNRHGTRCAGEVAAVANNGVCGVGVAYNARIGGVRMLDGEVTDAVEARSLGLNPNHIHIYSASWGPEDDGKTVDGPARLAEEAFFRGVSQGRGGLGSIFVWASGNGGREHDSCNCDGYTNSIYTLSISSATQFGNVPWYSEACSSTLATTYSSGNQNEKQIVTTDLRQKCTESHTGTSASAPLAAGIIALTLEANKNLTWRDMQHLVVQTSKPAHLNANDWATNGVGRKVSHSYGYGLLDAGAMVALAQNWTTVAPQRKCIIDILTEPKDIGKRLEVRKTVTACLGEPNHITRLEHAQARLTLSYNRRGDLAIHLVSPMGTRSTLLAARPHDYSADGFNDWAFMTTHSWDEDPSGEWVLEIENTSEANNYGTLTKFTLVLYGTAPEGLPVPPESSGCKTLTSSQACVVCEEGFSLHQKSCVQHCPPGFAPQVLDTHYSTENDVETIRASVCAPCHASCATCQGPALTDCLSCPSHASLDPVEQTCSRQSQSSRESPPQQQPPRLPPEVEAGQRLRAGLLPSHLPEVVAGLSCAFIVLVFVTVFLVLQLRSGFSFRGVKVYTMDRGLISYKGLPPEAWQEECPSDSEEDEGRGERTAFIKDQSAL
# protocol_description: furin cleavage Z-score vs untreated control; higher = more cleavage, active = 3.5 or more, inactive = 1 or less, 8 variable residues between constant flanks
# conditions: 30 min
This is one part of the list. How many sequences the whole screen found active is unknown.
// return just the number, without any unit appended

CARGGRIFRSAGNASASA [FS-1397]; 7.16
CATNHRIFRSAGNASASA [FS-384]; 5.79
CASDPCSAHLAGNASASA [HC2491]; 0.561
CAGLVPRGSAAGNASASA [TR1]; -0.254
CAFLWRSFRSAGNASASA [FS-327]; -0.629

[Q] Please give the documented furin cleavage Z-score of CAAPARWPRSAGNASASA [FS-974]
[A] 6.73
